These entries and their values trace back to PubChem BioAssay AID1347172.

Experiment: Secondary qRT-PCR qHTS assay for selected Zika virus inhibitors
Conditions: Vero cells ZIKV infection, NS5 RNA qRT-PCR, 24 h; series mostly up to 32.6 µM
Records with an inconclusive call do not appear. Calls of active or inactive are those of the source. The call rests on the fitted dose curve; in most records, active means well fitted inhibition curve with a large enough effect; inconclusive means small, poorly fitted or top-dose-only effect; inactive means flat fitted curve, though single readings scatter.
Mark one answer only. Choices: active, inactive

Task item: Recorded test outcome, item CC1CCN(C(c2ccc(F)cc2)c2ccc(C(C)C(=O)O)cc2-c2ccc(C(F)(F)F)cc2)CC1 (configuration not stated)
Reply: active

Task item: Recorded test outcome, item COc1ccc(NS(=O)(=O)c2ccc(NS(=O)(=O)c3ccc4c(c3)OCCO4)cc2)cc1
Reply: inactive

Task item: Recorded test outcome, item COc1cc(C(=O)O)ccc1NC(=O)[C@@H]1N[C@@H](CC(C)(C)C)[C@](C#N)(c2ccc(Cl)cc2F)[C@H]1c1cccc(Cl)c1F
Reply: active

Task item: Recorded test outcome, item Cc1ccc2[nH]c(=O)c(C3=NN(C(=O)CCC(=O)O)C(c4ccc(Br)cc4)C3)c(-c3ccccc3)c2c1 (configuration not stated)
Reply: inactive

Task item: Recorded test outcome, item CC(C)=CCc1c2c(c3occ(-c4ccc(O)c(O)c4)c(=O)c3c1O)C=CC(C)(C)O2
Reply: active

Task item: Recorded test outcome, item CC[C@H](C)[C@H]1O[C@]2(CC[C@@H]1C)C[C@@H]1C[C@@H](C/C=C(\C)[C@@H](O[C@H]3C[C@H](OC)[C@@H](O[C@H]4C[C@H](OC)[C@@H](O)[C@H](C)O4)[C@H](C)O3)[C@@H](C)/C=C/C=C3\CO[C@@H]4[C@H](O)C(C)=C[C@@H](C(=O)O1)[C@]34O)O2
Reply: active

Task item: Recorded test outcome, item CCOc1nc2cccc(C(=O)OC(C)OC(=O)OC3CCCCC3)c2n1Cc1ccc(-c2ccccc2-c2nn[nH]n2)cc1 (configuration not stated)
Reply: active
